# Read-out: Vascular cell adhesion molecule 1 (VCAM1), VCAM1 (gene 7412)
# Test Details: BSK_LPS_VCAM1: BioMAP Diversity Plus: LPS Assay for Vascular cell adhesion molecule 1 (VCAM1) Biomarker Activity (AID 2283086)
# Measurement Conditions: primary human HUVEC with PBMC; actives raise or lower the signal
# Procedure: BSK_LPS is a cell-based, multiplexed-readout assay that uses umbilical vein endothelium and peripheral blood mononuclear cells, a human vascular primary cell co-culture, with measurements taken at 24 hours after chemical dosing in a 96-well plate.BSK_LPS_VCAM1 is an assay component measured in the BSK_LPS assay. It measures VCAM-1 antibody related to regulation of gene expression using ELISA technology.Data from the assay component BSK_LPS_VCAM1 was analyzed into 1 assay endpoint. […]
The source made the active and inactive calls. Rule for the calls: active = hit-call score of the fitted dose curve at least 0.9, where 1 is the maximum; inactive = score below 0.9.
A correct response names exactly one class from 1 (active), 0 (inactive)

Identify the outcome logged in this assay for the compound shown: `CCCCCCCCC(F)(F)C(F)(F)C(F)(F)C(F)(F)C(F)(F)C(F)(F)F`
0

Identify the outcome logged in this assay for the compound shown: `COC(=O)CCC(F)(F)C(F)(F)C(F)(F)C(F)(F)F`
0

Identify the outcome logged in this assay for the compound shown: `OCC(F)(F)C(F)(F)C(F)(F)C(F)F`
0

Identify the outcome logged in this assay for the compound shown: `FC(F)(F)C(F)(F)C(F)(F)C(F)(F)C(F)(F)CCI`
0

Identify the outcome logged in this assay for the compound shown: `FC(F)(F)C(F)(F)C(F)(F)C(F)(F)C(F)(F)C(F)(F)C(F)(F)C(F)(F)CCS`
0

Identify the outcome logged in this assay for the compound shown: `O=C(O)C(F)(F)C(F)(F)C(F)(F)C(F)(F)C(F)(F)C(F)(F)C(F)(F)C(F)(F)C(F)(F)C(F)(F)C(F)(F)C(F)(F)F`
0

Identify the outcome logged in this assay for the compound shown: `O=C(CC(=O)C(F)(F)C(F)(F)F)C(F)(F)F`
0

Identify the outcome logged in this assay for the compound shown: `O=C(O)C(F)(F)C(F)(F)C(F)F`
0

Identify the outcome logged in this assay for the compound shown: `CCO[Si](CCC(F)(F)C(F)(F)C(F)(F)C(F)(F)C(F)(F)C(F)(F)F)(OCC)OCC`
0

Identify the outcome logged in this assay for the compound shown: `O[Si](c1ccccc1)(c1ccccc1)c1ccccc1`
0

Identify the outcome logged in this assay for the compound shown: `O=S(=O)(OCCOC(F)(F)F)C(F)(F)F`
0

Identify the outcome logged in this assay for the compound shown: `FC(F)(F)C(F)(F)C(F)(F)C(F)(F)C(F)(F)C(F)(F)CCS`
0

Identify the outcome logged in this assay for the compound shown: `C=CC(=O)OCC(F)(F)C(F)(F)C(F)(F)C(F)(F)C(F)(F)C(F)(F)C(F)(F)F`
0

Identify the outcome logged in this assay for the compound shown: `CCc1ccc(C(c2ccc(CC)cc2)C(Cl)Cl)cc1`
1

Identify the outcome logged in this assay for the compound shown: `O=C(O)C(F)(F)C(F)(F)C(F)(F)F`
0

Identify the outcome logged in this assay for the compound shown: `CS(C)(=O)=O`
0

Identify the outcome logged in this assay for the compound shown: `O=C(O)C(F)(F)C(F)(F)OC(F)(F)F`
0

Identify the outcome logged in this assay for the compound shown: `O=C(O)C(F)(F)C(F)(F)F`
0

Identify the outcome logged in this assay for the compound shown: FC1CC(F)(F)C(F)(F)C1(F)F (stereo not drawn)
0

Identify the outcome logged in this assay for the compound shown: `Nc1ccc([N+](=O)[O-])cc1O`
0

Identify the outcome logged in this assay for the compound shown: `CC(=O)Nc1ccc(N=Nc2cc(C)ccc2O)cc1`
1

Identify the outcome logged in this assay for the compound shown: O=C(O)C(F)(OC(F)(F)C(F)(OC(F)(F)C(F)(OC(F)(F)C(F)(F)C(F)(F)F)C(F)(F)F)C(F)(F)F)C(F)(F)F (stereo not drawn)
0

Identify the outcome logged in this assay for the compound shown: `FC(F)(F)C(F)(F)C(F)(F)C(F)(F)C(F)(F)C(F)(F)C(F)(F)Br`
0
